The following compounds are listed with their measured normalized growth values.
- assay.explanation: chemical genetic growth profiling, strain panel (AID 1159580);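 further: tested at 20 µM; growth read once vehicle control cultures reached saturation at 30 °C; 1 = growth at the plate median or of vehicle wells; lower values mean less growth of the strain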
- reported.conditions: S. cerevisiae deletion strains, growth OD, locus YJL187C, strain SWE1, hits give low values
Among all 5,500 compounds or so, about 2,000 (36%) were called active. Roughly 18% stayed inconclusive and do not appear here. The list shows a part of the results.
parameter.measured: normalized growth

{"columns": ["compound", "parameter.measured", "endpoint.value"],
 "data": [
  ["Nc1ccc2nonc2c1N", "normalized growth", 0.974],
  ["CC(Cc1cccc(C(F)(F)F)c1)NCCOC(=O)c1ccccc1 (configuration not stated)", "normalized growth", 0.978],
  ["CN1CCN(C(=O)OC2c3nccnc3C(=O)N2c2ccc(Cl)cn2)CC1 (configuration not stated)", "normalized growth", 0.994],
  ["CCC(C)[C@H]1O[C@]2(C=C[C@@H]1C)C[C@@H]1C[C@@H](C/C=C(\\C)[C@@H](OC3C[C@H](OC)C(O[C@H]4C[C@H](OC)[C@@H](O)[C@H](C)O4)[C@H](C)O3)[C@@H](C)/C=C/C=C3\\CO[C@@H]4[C@H](O)C(C)=C[C@@H](C(=O)O1)[C@]34O)O2 (some centres not stated)", "normalized growth", 0.951],
  ["CC(=O)O[C@H]1CCC2(C)C3=C(CCC2C1(C)C)[C@]1(C)CCC(C(C)CCC=C(C)C)[C@@]1(C)CC3 (some centres not stated)", "normalized growth", 0.997],
  ["CC(=O)O[C@H]1CCC2(C)C3=C(CCC2C1(C)C)[C@@]1(C)CC[C@@H](C(C)CCC=C(C)C)[C@]1(C)CC3 (some centres not stated)", "normalized growth", 1.01],
  ["CN(C)[C@@H]1C(=O)C(C(N)=O)=C(O)[C@@]2(O)C(=O)C3=C(O)c4c(O)ccc(Cl)c4[C@@H](O)[C@H]3C[C@@H]12", "normalized growth", 0.988]
]}

----------
- assay.explanation: chemical genetic growth profiling, strain panel (AID 1159580)
- reported.conditions: S. cerevisiae deletion strains, growth OD, locus YKL085W, strain MDH1 (second series), hits give low values
Hit rate of the full screen: of about 5,500 compounds, about 2,000 (36%) were called active. About 18% were inconclusive and are not listed. This is one part of the list.
We label by threshold. Values of normalized growth strictly beneath 1 are condition met. Values of 1 and up are condition not met.

{"columns": ["molecule", "assigned.category"],
 "data": [
  ["CC(=O)Oc1ccc(O)cc1", "condition not met"],
  ["COc1ccc(C2Sc3ccccc3N(CCN(C)C)C(=O)C2OC(C)=O)cc1 (configuration not stated)", "condition not met"],
  ["COc1ccc2cc(CCC(C)=O)ccc2c1", "condition met"]
]}

----------
- assay.explanation: chemical genetic growth profiling, strain panel (AID 1159580)
- reported.conditions: S. cerevisiae deletion strains, growth OD, locus YKL190W, strain CNB1, hits give low values
Hit rate of the full screen: of about 5,500 compounds, about 2,000 (36%) were called active. Another 18% or so got no clear call; they are omitted. The list shows a part of the results.
The following molecules are listed with their measured normalized growth values.

{"columns": ["molecule", "normalized growth"],
 "data": [
  ["COC(=O)c1ccc(S(=O)(=O)N2CCC(C(N)=O)CC2)n1C", 1.02],
  ["CSc1sc(C#N)c2c1C(O)CCC2 (stereo unspecified)", 0.992],
  ["CC(=O)Oc1ccc(C(c2ccc(OC(C)=O)cc2)c2ccccn2)cc1", 0.989],
  ["CC(=O)Oc1cccc(O)c1", 1],
  ["CSc1ncc(C#N)c2nc(-c3ccc(N(C)C)cc3)nn12", 1.01],
  ["O=C(NCO)c1cccnc1", 0.997]
]}

----------
- assay.explanation: chemical genetic growth profiling, strain panel (AID 1159580);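 further: tested at 20 µM; growth read once vehicle control cultures reached saturation at 30 °C; 1 = growth at the plate median or of vehicle wells; lower values mean less growth of the strain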
- reported.conditions: S. cerevisiae deletion strains, growth OD, locus YLR342W, strain FKS1 (second series), hits give low values
The whole screen tested about 5,500 compounds, of which about 2,000 (36%) were called active. About 18% were inconclusive and are not listed. The list shows a part of the results.
parameter.measured: normalized growth

{"columns": ["compound", "endpoint.value"],
 "data": [
  ["COc1ccccc1OCC(O)CO (centres undefined)", 1.01],
  ["OC[C@H]1O[C@@H](O[C@H]2[C@H](O)[C@@H](O)[C@@H](O)O[C@@H]2CO)[C@H](O)[C@@H](O)[C@@H]1O", 1.09],
  ["CC(C)CCCC(C)C1CCC2C3=CC[C@H]4C[C@@H](O)CC[C@]4(C)C3CC[C@@]21C (some centres undefined)", 1.04],
  ["CC(=O)Oc1ccc(C(c2ccc(OC(C)=O)cc2)c2ccccn2)cc1", 1.02],
  ["CCC(C)C(=O)OC1[C@@H]2CC3=C4CC(=O)O[C@@H](c5ccoc5)[C@]4(C)CCC3[C@@](C)(C2=O)[C@@H](CC(=O)OC)C1(C)C (some centres undefined)", 1],
  ["CC(=O)Oc1ccc(/C=C/c2cc(OC(C)=O)cc(OC(C)=O)c2)cc1", 1.01],
  ["COc1c(C)c2c(c(C)c1Cl)Oc1c(Cl)c(OC)c(Cl)c(C)c1C(=O)O2", 1.08],
  ["CC(=O)Oc1c(Cl)c(C)c2c(c1Cl)OC(=O)c1c(C)c(Cl)c(OC(C)=O)c(Cl)c1O2", 0.828],
  ["COC(=O)c1c(C)c2c(c(C)c1OC)OC(=O)c1c(C)c(Cl)c(OC)c(Cl)c1O2", 1.05],
  ["OC[C@H]1O[C@@H](O[C@@H]2[C@@H](CO)O[C@](O)(CO)[C@H]2O)[C@H](O)[C@@H](O)[C@H]1O", 0.994],
  ["CC(C)c1ccc2c(c1)CCC1C(C)(C(N)=O)CCCC21C (centres undefined)", 0.645],
  ["CC(C)CCCC(C)C1CCC2C3C[C@@H](O)[C@@]4(O)C[C@@H](O)CC[C@]4(C)C3CC[C@]12C (some centres undefined)", 1.03],
  ["CC(C)CCCC(C)[C@H]1CCC2C3CC[C@@H]4C[C@H](O)CC[C@]4(C)C3CC[C@@]21C (some centres undefined)", 1.01],
  ["CC(C)CCCC(C)C1CCC2C3CC(=O)[C@H]4C[C@@H](O)CC[C@]4(C)C3CC[C@]12C (some centres undefined)", 1.02],
  ["CN(C)C(=O)Oc1cccc([N+](C)(C)C)c1", 0.998],
  ["Cc1ccc2c(c1)C1(C)CCCC(C)(C(=O)O)C1CC2 (centres undefined)", 1.06],
  ["CC(=O)Oc1ccc(O)cc1", 0.819],
  ["COC(=O)c1c(OC)cc2c(c1C)Oc1c(Cl)c(OC(C)=O)c(Cl)c(C)c1C(=O)O2", 1.05],
  ["CC(C)CCCC(C)[C@H]1CCC2C3CC=C4C[C@@H](O)CC[C@]4(C)C3CC[C@@]21C (some centres undefined)", 1.02]
]}

----------
- assay.explanation: chemical genetic growth profiling, strain panel (AID 1159580);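 further: tested at 20 µM; growth read once vehicle control cultures reached saturation at 30 °C; 1 = growth at the plate median or of vehicle wells; lower values mean less growth of the strain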
- reported.conditions: S. cerevisiae deletion strains, growth OD, locus YDR137W, strain rgp1, hits give low values
The whole screen tested about 5,500 compounds, of which about 2,000 (36%) were called active. Roughly 18% stayed inconclusive and do not appear here. Some of the results follow.
The following compounds are listed with their measured normalized growth values.
parameter.measured: normalized growth

{"columns": ["compound", "parameter.measured", "endpoint.value"],
 "data": [
  ["CC(C)CCCC(C)[C@H]1CCC2C3C(=O)C=C4C[C@@H](O)CC[C@]4(C)C3CC[C@@]21C (stereo not given in full)", "normalized growth", 0.946],
  ["O=P1(N(CCCl)CCCl)NCCCO1 (stereo not given)", "normalized growth", 1.01],
  ["N=C(N)N", "normalized growth", 1],
  ["CC(=O)O[C@H]1CC[C@@]2(C)C(=CC(=O)C3C4CCC(C(C)CCCC(C)C)[C@@]4(C)CCC32)C1 (stereo not given in full)", "normalized growth", 1.01],
  ["CC[N+](C)(C)c1cccc(O)c1", "normalized growth", 1.04]
]}

----------
The following compounds are listed with their measured normalized growth values.
- assay.explanation: chemical genetic growth profiling, strain panel (AID 1159580);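 further: tested at 20 µM; growth read once vehicle control cultures reached saturation at 30 °C; 1 = growth at the plate median or of vehicle wells; lower values mean less growth of the strain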
- reported.conditions: S. cerevisiae deletion strains, growth OD, locus YPR141C, strain kar3, hits give low values
Hit rate of the full screen: of about 5,500 compounds, about 2,000 (36%) were called active. Another 18% or so got no clear call; they are omitted. The list shows a part of the results.

{"columns": ["compound", "normalized growth"],
 "data": [
  ["CCCOc1ccc2nc(NC(=O)OC)[nH]c2c1", 0.993],
  ["O=C1NC(O)=NC1(c1ccccc1)c1ccccc1", 1.01],
  ["C/C1=C/CC(C)(C)/C=C/C/C(C)=C/CC1", 1],
  ["CCCSc1ccc2nc(NC(=O)OC)[nH]c2c1", 0.992],
  ["CC(=O)O[C@@H]1C=C[C@@]2(C)C(C[C@@H](OC(C)=O)[C@@]3(C)C4=CC(=O)O[C@@H](c5ccoc5)[C@]4(C)CCC23)C1(C)C (some centres undefined)", 0.0773],
  ["C/C1=C\\CC(C)(C)/C=C/CC2(C)OC2CC1 (centres undefined)", 1.01],
  ["CN(C)C1C(=O)C(C(N)=O)=C(O)C2(O)C(=O)C3=C(O)c4c(O)ccc(Cl)c4C(C)(O)C3CC12 (centres undefined)", 1],
  ["CN(C)[C@@H]1C(=O)C(C(N)=O)=C(O)[C@@]2(O)C(=O)C3=C(O)c4c(O)ccc(Cl)c4[C@@](C)(O)[C@H]3C[C@@H]12", 1.01],
  ["COc1ccc([C@@H]2CC(=O)c3c(O)cc(O[C@@H]4O[C@H](CO[C@H]5O[C@@H](C)[C@H](O)[C@@H](O)[C@H]5O)[C@@H](O)[C@H](O)[C@H]4O)cc3O2)cc1O", 0.98]
]}
